Assay: Biotransformation in CD1 mouse liver microsomes at 5 uM measured at 20 mins by HPLC/ESI-MS/MS analysis
Format: ADME
Conditions: read-out: Drug metabolism
Class definitions on metabolised at 20 min, 5 µM: lower range = under 5%, middle range = from 5% up to 40%, upper range = 40% and over

# classify by metabolised at 20 min, 5 µM band: CN(C)C(=O)Cc1nn(-c2ccccc2)c(=O)c2c1c1ccc(Cl)cc1n2C/C=C/CF
middle range

Hello team, could you let me know which band the following molecule falls into: CN(C)C(=O)Cc1nn(-c2ccc(OCCOCCOCCF)cc2)c(=O)c2c1c1ccc(Cl)cc1n2C
upper range

Categorize the following entry: CN(C)C(=O)Cc1nn(-c2ccc(OCCOCCF)cc2)c(=O)c2c1c1ccc(Cl)cc1n2C
middle range

Lab note: sort CN(C)C(=O)Cc1nn(-c2ccc(OCCCCF)cc2)c(=O)c2c1c1ccc(Cl)cc1n2C into the matching metabolised at 20 min, 5 µM band.
lower range

Classify this molecule: CN(C)C(=O)Cc1nn(-c2ccccc2)c(=O)c2c1c1ccc(Cl)cc1n2C
middle range

State the band of COc1ccc(-n2nc(CC(=O)N(C)C)c3c4ccc(Cl)cc4n(C)c3c2=O)cc1
middle range

Would you mind sorting CN(C)C(=O)Cc1nn(-c2ccc(OCCF)cc2)c(=O)c2c1c1ccc(Cl)cc1n2C into the appropriate category?
lower range

Lab note: sort CN(C)C(=O)Cc1nn(-c2ccc(OCC#CCF)cc2)c(=O)c2c1c1ccc(Cl)cc1n2C into the matching metabolised at 20 min, 5 µM band.
upper range

Category lookup for the molecule CN(C)C(=O)Cc1nn(-c2ccc(OCCCF)cc2)c(=O)c2c1c1ccc(Cl)cc1n2C
lower range

# bin label for CN(C)C(=O)Cc1nn(-c2ccc(OC/C=C/CF)cc2)c(=O)c2c1c1ccc(Cl)cc1n2C
upper range

---

Test: Biotransformation in Sprague-Dawley rat liver microsomes at 5 uM measured at 20 mins by HPLC/ESI-MS/MS analysis
Assay type: ADME
Details: read-out: Drug metabolism
Field: metabolised at 20 min, 5 µM. Provide a value for each of the compounds that follow.
Record the value in %, omitting the unit from your answer.

Give me measured metabolised at 20 min, 5 µM, please, for this compound: CN(C)C(=O)Cc1nn(-c2ccc(OC/C=C/CF)cc2)c(=O)c2c1c1ccc(Cl)cc1n2C
41

Query metabolised at 20 min, 5 µM for CN(C)C(=O)Cc1nn(-c2ccc(OCCF)cc2)c(=O)c2c1c1ccc(Cl)cc1n2C
2

Tell us which metabolised at 20 min, 5 µM value is on record for CN(C)C(=O)Cc1nn(-c2ccc(OCCOCCF)cc2)c(=O)c2c1c1ccc(Cl)cc1n2C
11

---

Test: Biotransformation in human liver microsomes at 5 uM measured at 20 mins by HPLC/ESI-MS/MS analysis
Assay type: ADME
Conditions: read-out: Drug metabolism
For each record, write down the corresponding metabolised at 20 min, 5 µM.

Please supply the value of reported metabolised at 20 min, 5 µM for the item CN(C)C(=O)Cc1nn(-c2ccc(OC/C=C/CF)cc2)c(=O)c2c1c1ccc(Cl)cc1n2C
76%

Fill in reported metabolised at 20 min, 5 µM for this entry: CN(C)C(=O)Cc1nn(-c2ccc(OCCOCCOCCF)cc2)c(=O)c2c1c1ccc(Cl)cc1n2C
81%

// fetch metabolised at 20 min, 5 µM given entry CN(C)C(=O)Cc1nn(-c2ccc(OCCCCF)cc2)c(=O)c2c1c1ccc(Cl)cc1n2C
16%

---

Test: Biotransformation in Sprague-Dawley rat liver microsomes at 5 uM measured at 20 mins by HPLC/ESI-MS/MS analysis
Type: ADME
Conditions: read-out: Drug metabolism
measurementName: metabolised at 20 min, 5 µM (%)
Express the result in % but write the number alone.

Please list metabolised at 20 min, 5 µM recorded for the molecule CN(C)C(=O)Cc1nn(-c2ccccc2)c(=O)c2c1c1ccc(Cl)cc1n2CC#CCF
26

Identify the reported metabolised at 20 min, 5 µM for the following entry. COc1ccc(-n2nc(CC(=O)N(C)C)c3c4ccc(Cl)cc4n(C)c3c2=O)cc1
4

Note metabolised at 20 min, 5 µM for the molecule shown: CN(C)C(=O)Cc1nn(-c2ccccc2)c(=O)c2c1c1ccc(Cl)cc1n2C
14

Give metabolised at 20 min, 5 µM for the following molecule: CN(C)C(=O)Cc1nn(-c2ccc(OCCOCCOCCF)cc2)c(=O)c2c1c1ccc(Cl)cc1n2C
52

Fill in metabolised at 20 min, 5 µM for record CN(C)C(=O)Cc1nn(-c2ccccc2)c(=O)c2c1c1ccc(Cl)cc1n2C/C=C/CF
44

Please indicate metabolised at 20 min, 5 µM recorded for CN(C)C(=O)Cc1nn(-c2ccc(OCC#CCF)cc2)c(=O)c2c1c1ccc(Cl)cc1n2C
25

Note metabolised at 20 min, 5 µM for the molecule shown: CN(C)C(=O)Cc1nn(-c2ccc(OCCCCF)cc2)c(=O)c2c1c1ccc(Cl)cc1n2C
13

Retrieve metabolised at 20 min, 5 µM measured for CN(C)C(=O)Cc1nn(-c2ccccc2)c(=O)c2c1c1ccc(Cl)cc1n2CCF and print it.
14

Give a short answer stating reported metabolised at 20 min, 5 µM for CN(C)C(=O)Cc1nn(-c2ccc(OCCCF)cc2)c(=O)c2c1c1ccc(Cl)cc1n2C .
3

---

I'd appreciate it if you could supply logD values for the items below.
Experiment: n-octanol/buffer partition coefficient, log D of the compound at pH 7.4 by HPLC method
Assay type: physicochemical
Provide a numeric answer; units are not to be included.

Name the recorded logD of the item CN(C)C(=O)Cc1nn(-c2ccccc2)c(=O)c2c1c1ccc(Cl)cc1n2C/C=C/CF in your answer.
3.48

Return logD for the following compound: CN(C)C(=O)Cc1nn(-c2ccc(OC/C=C/CF)cc2)c(=O)c2c1c1ccc(Cl)cc1n2C
3.62

Please look at this compound and report its logD: CN(C)C(=O)Cc1nn(-c2ccc(OCCF)cc2)c(=O)c2c1c1ccc(Cl)cc1n2C
3.12

Read the entry CN(C)C(=O)Cc1nn(-c2ccc(OCCOCCOCCF)cc2)c(=O)c2c1c1ccc(Cl)cc1n2C and write its reported logD.
3.08

Determine its reported logD: CN(C)C(=O)Cc1nn(-c2ccccc2)c(=O)c2c1c1ccc(Cl)cc1n2CCCF
3.38

Please indicate logD recorded for CN(C)C(=O)Cc1nn(-c2ccc(OCCCCF)cc2)c(=O)c2c1c1ccc(Cl)cc1n2C
3.75

Give the value of logD reported for the following: CN(C)C(=O)Cc1nn(-c2ccc(OCCCF)cc2)c(=O)c2c1c1ccc(Cl)cc1n2C
3.48

Indicate its recorded logD; the compound in question is CN(C)C(=O)Cc1nn(-c2ccccc2)c(=O)c2c1c1ccc(Cl)cc1n2CC#CCF
3.44

Query logD for CN(C)C(=O)Cc1nn(-c2ccc(OCC#CCF)cc2)c(=O)c2c1c1ccc(Cl)cc1n2C
3.54

Please supply the value of reported logD for the item CN(C)C(=O)Cc1nn(-c2ccccc2)c(=O)c2c1c1ccc(Cl)cc1n2CCOCCF
3.2

Using the record for CN(C)C(=O)Cc1nn(-c2ccccc2)c(=O)c2c1c1ccc(Cl)cc1n2CCOCCOCCF , state its measured logD.
3.19

Quote logD reported for CN(C)C(=O)Cc1nn(-c2ccccc2)c(=O)c2c1c1ccc(Cl)cc1n2CCCCF please.
3.66

Provide one value: measured logD of CN(C)C(=O)Cc1nn(-c2ccc(OCCOCCF)cc2)c(=O)c2c1c1ccc(Cl)cc1n2C
3.11

Give the reported logD for this compound. CN(C)C(=O)Cc1nn(-c2ccccc2)c(=O)c2c1c1ccc(Cl)cc1n2C
2.97

State its logD for this compound: COc1ccc(-n2nc(CC(=O)N(C)C)c3c4ccc(Cl)cc4n(C)c3c2=O)cc1
3.01

Report logD for CN(C)C(=O)Cc1nn(-c2ccccc2)c(=O)c2c1c1ccc(Cl)cc1n2CCF
3.09

---

Assay: Biotransformation in human liver microsomes at 5 uM measured at 20 mins by HPLC/ESI-MS/MS analysis
Assay type: ADME
Conditions: read-out: Drug metabolism
Cut-off 20% on metabolised at 20 min, 5 µM, inclusive. At or above means class 1; below means class 0.

Decide: metabolised at 20 min, 5 µM of CN(C)C(=O)Cc1nn(-c2ccccc2)c(=O)c2c1c1ccc(Cl)cc1n2C >= 20%?
class 0

Hi team, for CN(C)C(=O)Cc1nn(-c2ccc(OCCOCCF)cc2)c(=O)c2c1c1ccc(Cl)cc1n2C , is the recorded metabolised at 20 min, 5 µM at or above 20%?
class 0

Threshold query (metabolised at 20 min, 5 µM >= 20%) on CN(C)C(=O)Cc1nn(-c2ccc(OCCCF)cc2)c(=O)c2c1c1ccc(Cl)cc1n2C
class 0

State whether the measured metabolised at 20 min, 5 µM reaches 20%, counting equality as reaching it, for CN(C)C(=O)Cc1nn(-c2ccccc2)c(=O)c2c1c1ccc(Cl)cc1n2C/C=C/CF
class 1

Item CN(C)C(=O)Cc1nn(-c2ccccc2)c(=O)c2c1c1ccc(Cl)cc1n2CCF with metabolised at 20 min, 5 µM of 20% or above?
class 0

Is metabolised at 20 min, 5 µM for CN(C)C(=O)Cc1nn(-c2ccccc2)c(=O)c2c1c1ccc(Cl)cc1n2CC#CCF at or above 20%?
class 1

Identify whether the reported metabolised at 20 min, 5 µM of the following compound is 20% or greater: COc1ccc(-n2nc(CC(=O)N(C)C)c3c4ccc(Cl)cc4n(C)c3c2=O)cc1
class 1

Is it the case that CN(C)C(=O)Cc1nn(-c2ccc(OCC#CCF)cc2)c(=O)c2c1c1ccc(Cl)cc1n2C has metabolised at 20 min, 5 µM reaching or exceeding 20%?
class 1

metabolised at 20 min, 5 µM >= 20% for CN(C)C(=O)Cc1nn(-c2ccc(OCCF)cc2)c(=O)c2c1c1ccc(Cl)cc1n2C ?
class 0
